- experimentDescription: yeast display, Sf9 membrane polyspecificity reagent, FACS + sequencing; frameworks hold sequencing errors
metric: polyreactivity (PSR sort gate)

The examples below pair each entry with its known result.
QVQLVESGGGLVQAGGSLRLSCAASGNTFTRNTMGWYRPAPGKERELVASISLSGASTYYADSVKGRFTISRDNAKNTVYLQMNSLKPEDTAVYYCAAEYFNYKTDVDYWGQGTQVTVSS | high polyreactivity
QVQLVESGGGLVQAGGSLRLSCSASGRTFSKYAMAWYRQAPGKERELVAAISKRGGSTSYADSVKGRFTISRDNAKNTVYLQMNSLKREDTAVYYCAATYTYVVPEYDYWGHGTQVTVSS | high polyreactivity
QVQLVESGGGLVQAGGSLRLSSDASGRIFYVYTMGWYRQAPGKEREFVAAISDSGGSTYYADSVKGRFTISRDNAKNTVYLQMNSLQTEDTAVYYCNAGYGPAAYYWYYGGYYYWGQGTQVTVSS | low polyreactivity
QVQLVESVGGLVQAGGSLRLSCAASGSTSSYYTMGWYRQAPGKERELVAYADSVKGRFTISRDNAKNTVYLQMNSLKPEDTAVYYCAAPRTYYSELTSPYDYWGQGTQVTVSS | low polyreactivity
QVQLVVSGGGLVQAGGSLRLSCAASGSFFPIYAMGWYRQAPGKERELVAAITSGGSTNYADSVKGRFTISRDNAKNTVYLQMNSLKPEDTAVYYCAAGGPDHADRYEYWGQGTQVTVSS | low polyreactivity

Hi team, please reply with polyreactivity (PSR sort gate) for each item in this list.
1. QVQLVESGGGLVQAGGSLRLSCAASGSIFDYNTMGWYRQAPGKERELVAVISGTGGSTYYADSVKGRFTISRGNAKNTVYLQMNSLKPEDTAVYYCAADTFVRNQWYLVEYWGQGTQVTVSS
2. QVQLVESGGGLVQAGGSLRLSCAASGSIFDTYAMGWYRQAPGKERELVAAITRRAGSTYYADSVKGRFTISRDNAKNTVYLQMNSLKPEDTPVYYGAAGYDRYPGVIDEYWGQGTEVTVSS
3. QVQLVESGGGLVQAGGSLRLSCAASGSTFYLYAKVWYRQAPGKERELVAAISWSGGDTYYADSVKGRFTISRDKAKNTVYLQMNSLKPEDTAVYYCAAEISYSSPGSPRRRDYWGQGTQVTVSS

low polyreactivity
low polyreactivity
low polyreactivity

Hi team, please reply with polyreactivity (PSR sort gate) for each item in this list.
1. QVQLVESGGGLVQAGGSLRLSCSASGYTFYLYTMGWYRQAPGTERELVAAISGSGTSTYYADSVKGRFTISRDNAKNTVYLQMNSLKPEDTAVYYCAAEDYSRDVYSYYYWGQGTQVTVSS
2. QVQLQESGGGLVQVGGSLRLSCAASGNIFIYGIMGWNRQAPGKERELVASINLGGITNYADSVKGRFTISRDNAKNTVYLQMISLKPEDTAVYYCAAYVVTGQNYGYWGQGTQVTVSS
3. QVQLVETGVGLVQAGGSLRLSCAASGRIFKRNTMGWYRQAPGKEREFVASITFSGGSTNYADSVKGRFTISRDNAKNTVYLQMNSLKPEDTAVYYCAARDYHYSTYDYWGQGTQVTVSS
4. QVQLVESGGGLVQAGGSLRLSCAASGSIFFYAMGWYRQAPGKERELVADITYTGGSKYADSVKGRFTISRDYAKNTVYLQMNSLKPEDTAVYYCAKLDGGLFDYWGQGTQVTVSS
5. QVQLEESGGGLVQAGGSLRLSCAASGLTFVYNAMGWYRQAPGKERELVAAISRVGSTNYADSVKGRFTISRDNAKNTVYLQMNSLKPEDTAVYYCNAERSRRYSGWVNYAPLNYWGQGTQVTVSS

1: low polyreactivity; 2: low polyreactivity; 3: low polyreactivity; 4: low polyreactivity; 5: low polyreactivity

Hi team, please reply with polyreactivity (PSR sort gate) for each item in this list.
1. QVHLQESGGGLVKAGGSLRLSCAASGNISNHNDMGWYRQAPGKEREFVAGITAGGITNYADSVKGRFTISRDNAKNTVYLQMNSLKPEDTAVYYCAASPDYAKSYGYWGQGTQATVSS
2. QVQLEESGGGLVQAGGSLRLSCAASGSTFSGYAMGWYRQATGKDRELVAAITSSGGRTYYADSVKGRFTISRDKAKNTVYLQMNSLKPEDTAVYYCAALYYHEYDYWGQGTQVTVSS
3. QVQLVESVGGLVQAGGSLRLSCAASGRPFKKYAMGCYRQAPGKERALVAAITGSGGSTYYADAVKGRFTSSRDNAKKTVYLQMNSLKPEDTAVYYCAAYAYGVWHSHDGGNYWGQGTQVTVSS

1. low polyreactivity
2. low polyreactivity
3. low polyreactivity
